- Tested on: HAPI
- test details: Antiinflammatory activity in rat HAPI cells assessed as inhibition of LPS-induced iNOS mRNA expression at 50 uM treated 30 mins before LPS challenge measured after 6 hrs by RT-PCR analysis
- Assay type: functional, cell-based
Active and inactive are the calls of the source. The calls are words filed in the database; no cut-off is given here.
readout kind: inhibition

COc1cc(C(=O)/C=C/c2ccccc2)ccc1O[C@@H]1O[C@H](CO)[C@@H](O)[C@H](O)[C@H]1O ... Active
CC1=CC(=O)CC(C)(C)[C@@]1(O)/C=C/[C@H](C)O[C@@H]1O[C@H](CO)[C@@H](O)[C@H](O)[C@H]1O ... Active
COc1cc(C(C)=O)cc(OC)c1O[C@@H]1O[C@H](CO)[C@@H](O)[C@H](O)[C@H]1O ... Active
